Values from patent US20180355059A1

# ASSAYED SYSTEM: T1, recombinant cyno monkey PCSK9 protein (cyno monkey, UniProt A8T666 31-692 (rhesus entry), limits assumed, biotinylated in the ELISA assays)
# T1 construct: also called cyno PCSK9; Cyno Monkey PCSK9-His
# T1 sequence (A8T666 31-692 limits assumed): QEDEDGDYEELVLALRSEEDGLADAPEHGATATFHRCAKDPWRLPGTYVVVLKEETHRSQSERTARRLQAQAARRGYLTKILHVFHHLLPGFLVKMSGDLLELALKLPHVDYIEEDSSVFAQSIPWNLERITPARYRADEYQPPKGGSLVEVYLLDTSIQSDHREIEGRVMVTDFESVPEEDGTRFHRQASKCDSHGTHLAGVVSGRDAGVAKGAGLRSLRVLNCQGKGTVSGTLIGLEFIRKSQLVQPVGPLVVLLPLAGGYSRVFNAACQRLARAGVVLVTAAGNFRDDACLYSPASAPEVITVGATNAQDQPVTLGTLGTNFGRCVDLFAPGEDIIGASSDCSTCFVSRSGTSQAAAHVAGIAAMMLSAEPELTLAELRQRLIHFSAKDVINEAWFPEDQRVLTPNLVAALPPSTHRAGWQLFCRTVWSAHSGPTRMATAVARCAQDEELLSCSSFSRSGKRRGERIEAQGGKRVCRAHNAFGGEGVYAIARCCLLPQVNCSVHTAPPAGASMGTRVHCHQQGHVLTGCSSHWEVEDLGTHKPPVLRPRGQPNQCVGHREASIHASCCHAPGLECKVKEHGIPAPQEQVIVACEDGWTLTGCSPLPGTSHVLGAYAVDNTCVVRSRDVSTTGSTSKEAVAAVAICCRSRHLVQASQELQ
# ASSAY METHOD TEXT: ELISA; antibody 0.0067 nM
METRIC: OD450 nm (OD450 nm)
Please respond with the number in OD450 nm and leave the unit unwritten.

Incoming: Annotate the binder 74C10A8, fully human anti-PCSK9 antibody (antibody, human IgG1, V domains shown) VH: QVQLQESGPGLVKPSETLSLTCSVSGGSINTYYWSWIRQPPGKGLEWIGYIYYSGSTNYNPSLKSRVTISVDTSKNQFSLKLTSVTAADTAVYYCARERFTMVRGVMMDYYYYGMDVWGQGTTVTVSS VL: DIQLTQSPSFLSASVGDRVTITCRASQGISSYLAWYQQKPGKAPKLLIYAASTLQSGVPSRFSGSGSGTEFTLTISSLQPEDFATYYCQQLNSYPRTFGQGTKVEIK with its measured OD450 nm.
Outgoing: 0.11

Incoming: Annotate the binder 139G1C5, fully human anti-PCSK9 antibody (antibody, human IgG1, V domains shown) VH: QVQLQESGPGLVKPSGTLSLTCAVSGGSISRNNWWSWVRQPPGKGLEWIGEIYHSGSTNYNPSLKSRVTISVDKSKNQFSLKLSSVTAADTAVYYCARDLLGIGLDYWGQGTLVTVSS VL: EFVLTQSPATLSLSPGERAILSCRASQSFSSYIAWYQQKPGQAPRLLIYDASNRATGIPARFSGSGSGTDFTLTISSLEPEDFAVYYCQQHSNWMYTFGQGTKLEIK with its measured OD450 nm.
Outgoing: 0.29

Incoming: Annotate the binder 152G2F7, fully human anti-PCSK9 antibody (antibody, human IgG1, V domains shown) VH: EVQLVESGGGLVQPGGSLRLSCAASEFTFGGYWMTWVRQAPGKGLEWVANIKQDGSEKYYVDSVKGRFTISRDNAKNSLYLHMNSLRAEDTAVYYCARDRTTMIRGVSLYYYYYGMDVWGQGTAVTVSS VL: EIVLTQSPATLSLSPGERATLSCRASQSVSSYLAWYQQKPGQAPRLLIYDASNRATGIPARFSGSGSGTDFTLTISSLEPEDFAVYYCQQRSNWPLTFGGGTKVEIK with its measured OD450 nm.
Outgoing: 0.08

Incoming: Annotate the binder 76A1B11, fully human anti-PCSK9 antibody (antibody, human IgG1, V domains shown) VH: QVQLVESGGGVVQPGRSLRLSCAATGFTFSIYGMHWVRQAPGKGLEWVAVIWYDGSNKYYADSVKGRFIISRDNSKNTLYLQMNSLRVEDTAVYYCVSDYFGSGNSYYYYGMDVWGQGTTVTVSS VL: DIQMTQSPSSLSASVGDRVTITCRASQVISNYLAWYQQKPGKVPKLLIYTASTLQSGVPSRFSGSGSGADFTLTISSLQPEDVATYYCQKYNSAPYTFGQGTKLEIK with its measured OD450 nm.
Outgoing: 0.24
